Tested on: K4 kissing-loop RNA reporter
Experiment: apparent KD of K4 kissing-loop reporter; higher = weaker reporter binding
Conditions: Eterna round: R107; input ligand: FMN 200 uM
Reported apparent KD of K4 kissing-loop reporter by item:

| monomer_sequence | apparent KD of K4 kissing-loop reporter / nM |
| --- | --- |
| AGUGACGAGUGAUGUUCGUGAACACUGGAUACCAGCAGUCUUAUCUGCCCUUGGCAGCCAACGGGAACCGAAUGUUAAGACCUGU [theeternabot_exclusion_KL_Theo_A_4] | 132 |
| GACGGGUUGCUGCUCAAUCCGUCGCAUGAUCGAGGACCGGUACGGCCGCCACUCGAGGCCAUGCCGUACGAGUGAUGUUCGUGCG [Xeerlaus] | 387 |
| AAAUAGCUGACGUUGAGUGGGAGCCAGGCACGAGGACCGGUACGGCCGCCACUCGACUAGGUUUUCAGUGAUGUUGAAAAUUUAA [Exclusion Tryptophan A GF 5] | 239 |
| UAUAUGCAGUGAUGUUGCGGCACACUUCCGAAGGAUAUGUCCGGUGACAGAAGGUCGGUCCAUGGGACAUCACGUGUGCUUGAUG [theeternabot_exclusion_KL_FMN_A_15] | 542 |

----------
Test system: MS2 coat protein
Assay: apparent KD of MS2 coat protein; designed switch direction (-1 OFF switch, 1 ON switch): -1; higher = weaker reporter binding
Conditions: input ligand: microRNA oligo, concentration not stated

| monomer_sequence | apparent KD of MS2 coat protein [nM] |
| --- | --- |
| ACAUGAGGAUCACCCAUGUAAUCAUGAUGGCUGAUGUAGACUCAGGAUAUGUGUGGCUUUCUAUCACAGAAGGGAGAAGACUGG [Deportation 37 - Jieux - Exclusion NG 3] (Eterna round: R96, puzzle: Exclusion NG 3) | 116 |
| CGGGCCCAGGCAGGAUAUGUACAGCCACAAAACCCUCGUGUGAGGGACAUGAGGAUCACCCAUGUAUAGAAGGGCCAGCGCGUA [Xeditein] (Eterna round: R96, puzzle: Exclusion NG 2) | 14 |
| CGGUGCUUCUGGAAACAUGAGGAUCACCCAUGUUGAGUUAGCGAGGAUAUCGGUAACACUUGUUAUGAGAAGGCGCGAACCAGA [Ex NG3 #35] (Eterna round: R96, puzzle: Exclusion NG 3) | 14.6 |
| ACAUCACAGCUAGGAUAUAUAUGACAUGAGGAUCACCCAUGUUGUCCCAUGUUGACGAAAACCGAAUAGAAGGAGCCACAGAUG [Ex NG2 #3] (Eterna round: R96, puzzle: Exclusion NG 2) | 61.5 |
| GUUGUUUAUGUAGGAUAUGCCUGGCGUGCCUUUGCAGAAGGACAUGAGGAUCACCCAUGUAUUGCGGUCUGCGUUCAGAUCGCC [salish99_ExNG1_r4_041] (Eterna round: R96, puzzle: Exclusion NG 1) | 19.1 |
| GCGCAAACGCCAAAAGGCGAAACAACAUGAGGAUCACCCAUGUAGGAUAUCGAUUGCUUUGCAGUCGAGAAGGACAAAAUGCGC [JL ENG3 3.80 Mod 6] (Eterna round: R96, puzzle: Exclusion NG 3) | 10.6 |
| AUAACGUAGCGAGGAUAUACGCGAGAUCGUUGCGUAGAAGGUGUAUCGUUGGACUUGAGGAUCACCCAAGUGAUGAGUCCUUCC [Mutated MS2 EX1.20] (Eterna round: R96, puzzle: Exclusion NG 1) | 34.7 |
| UUCGUGCAGCUUUGCUGUACGCGUACAUGAGGAUCACCCAUGUAGGAUAUGGUAGGCUUUGCUUACUAGAAGGAUAGAGUGAUC [JL EXNG3 1.29] (Eterna round: R96, puzzle: Exclusion NG 3) | 67.8 |
| UAUAUAUAGUAAGGAUAUGUAUUUAUUUUAUCAACAGAAGGUACUGACAUGAGGAUCACCCAUGUUUUAGUGUGGGCAUGUAGA [JMF's solution 26] (Eterna round: R96, puzzle: Exclusion NG 1) | 69.7 |

----------
System: MS2 coat protein
Assay: apparent KD of MS2 coat protein; higher = weaker reporter binding
Conditions: Eterna round: R107; input ligand: arginine 13.2 mM
assay_endpoint: apparent KD of MS2 coat protein (µM)

| monomer_sequence | measurement_unit | numeric_value |
| --- | --- | --- |
| GCGGACAUGAGGAUCACCCAUGUAAAUCCUCGAGGACCGGUACGGCCGCCACUCGAACGAGUGGCGCGCGCGCGCGCGCGCGCGC [aAa] | µM | 0.0253 |
| AGGACAUCGAGAAGGAGCGCAUCCAAACCACACAUGAGGAUCACCCAUGUAUAAAUAUGCAUGCAGGUAGGUCGCUCGGCGUCUU [Leanerin] | µM | 0.0575 |
| UUUGAUUAGAGAAGGAGCGUGAUAUUUAUAUAGUGUGUAUGUACAUGAGGAUCACCCAUGUCACAGGUAGGUCGCUCUGAUAAGG [JR_Nu_ExcArginiB_Sub030] | µM | 0.0148 |
| CAGUCUCUAGCGGCCGCCACUGUUCUGCUGGUGCUGCUGAACGAACAUGAGGAUCACCCAUGUCUCAGGACCGGGCUUCAGACUC [theeternabot_sameState_MS2_Trp_B_44] | µM | 0.0224 |
| ACAUUUAACUGAAGGAGCGUGAUAAACAUGAGGAUCACCCAUGUACCACAGAUUUUCAGAUCACAGGUAGGUCGCAGACUAAUGA [JR_ExcArginiB_Sub014] | µM | 0.00929 |

----------
Test system: MS2 coat protein
Assay: apparent KD of MS2 coat protein; designed switch direction (-1 OFF switch, 1 ON switch): -1; higher = weaker reporter binding
Conditions: input ligand: FMN 200 uM
Reported apparent KD of MS2 coat protein by item:

| monomer_sequence | measurement_unit | apparent KD of MS2 coat protein |
| --- | --- | --- |
| AUGCUCCGUGUAGGAUAUCGCCGUACCACUCGGCGAGAAGGACAUGAGGAUCACCCAUGUAUGUUAUUAUCACGUGUGGCGCGC [Design 50] (Eterna round: R96, puzzle: Exclusion NG 1) | nM | 46 |
| ACAUGAGGAUCACCCAUGUUUGGCUGGUUCUCUCCGGCUGUUGAGGAUAUAGUCCGGUAUCCGCGCUAGAAGGUGAGGGCUGGC [Aenatbe mod 7] (Eterna round: R96, puzzle: Exclusion NG 3) | nM | 13.5 |
| AUGGCAAAGUUAGGAUAUGCAGUCUCCAAGACUGCAGAAGGAACGGUCCUCCUCCCUGAAACAUGAGGAUCACCCAUGUAAAGC [Eternabot solution 45] (Eterna round: R96, puzzle: Exclusion NG 1) | nM | 56.4 |
| ACAAGCUUAAUCAGUAUGAACAUGAGGAUCACCCAUGUAAAAGGGAAGACAAUUGGGUUAUUUAAAGCUCGUCUUAU [JR_STOV1_Sub016] (Eterna round: R97, puzzle: Sensor, turn-off variant 1) | nM | 57.6 |
| AACAUGUGAGGAUAUGAGAACAGUCCGGAGGACUGUGUAAAUUAGAAGGCACAUGAGGAUCACCCAUGUGACCU [Laonar] (Eterna round: R97, puzzle: Exclusion 4) | nM | 32.6 |
| AGAUUACUGCGAGGAUAUACAUGAGGAUCACCCAUGUGGUGGUGUGAGGCAAAGCCUCACACCAUGUAGAAGGCGCAGUAAUCA [Mat - Exclusion NG 2 - Mod of JL - D22] (Eterna round: R96, puzzle: Exclusion NG 2) | nM | 150 |
| CUUGUUUAUGUAGGAUAUGCCUGGCGUGCCUUUGCAGAAGGACAUGAGGAUCACCCAUGUAACAUGAGGCUCACCCUUGUCGCA [salish99_ExNG1_r04_115] (Eterna round: R96, puzzle: Exclusion NG 1) | nM | 183 |

----------
System: K4 kissing-loop RNA reporter;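 note: bound reporter read as fluorescence of individual clusters on recovered sequencing chips by microscopy, with normalized cluster intensities fitted with a binding model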
Experiment: apparent KD of K4 kissing-loop reporter; higher = weaker reporter binding
Settings: Eterna round: R107; input ligand: tryptophan 2.4 mM
Everything with apparent KD of K4 kissing-loop reporter lower than 0.1 µM is Not satisfied; everything else, including exactly 0.1 µM, is Satisfied.

| monomer_sequence | label |
| --- | --- |
| UCGAGUUGACGAAAAGUCAACUCGUGAGAUACCAGUGACGAAAGUCACCCUUGGCAGCUCACUGCCAGUGAUGUUGGUAUAUAGA [#05 K4 Theophylline A Same State] | Not satisfied |
| AGUAGUUGGGCGGCCGCCACUGGAACAGCUUUGCCAAAGGCAGAGCACUAGAGUGAUGUUCUAGCUAGGACCGGGUCCAACUACA [whbob_SS_Tryp_B_t17] | Satisfied |
| UUUUAAUAAAAGGAUACCAGUACAAAUAAAGUACAUUAAUAGUAGAGUGAUGUUCUAAAGUACCCUUGGCAGCUUAGAGUAAGUU [#17 K4 Theophylline B Exclusion] | Not satisfied |
| GUAUCGCUAGGAGGAUAUUUCGUUUUUCAUAGCAAUGGCUGUGCGGAGUGAUGUUCCGAUUUACCGGAAGAAGGCCUAGUGAUAC [FMN B 27] | Satisfied |
| UAUUUAAUGUCAGGAUAUCGUAUACGAGUGAUGUUCGUAUUUCUACUAUAGAUUAUUUAAAUUUUUCGAGAAGGGACAAUAUUUA [KL-SSFMN-B4] | Satisfied |
| CCGGUUCCAACGCUGACUGAAGAACAUGAUACCAGUCGAGGACUCGACCCUUGGCAGCAUUAUAGAGUGAUGUUCGCUUCAGAAA [theeternabot_sameState_KL_Theo_A_15] | Satisfied |
| AUACAUGUAAAUCUAUAUGUAUAAUGGAGCCGAGGACCGGUACGGCCGCCACUCGGAGUAAUCGGAGUGAUGUUCCGAAAUGUAC [KL-SSTryp-A sub13] | Not satisfied |
| AGGAGUGAUGUUCCUACAUACACGGUCCGACGAGGACCGGUACGGCCGCCACUCGCGUCCCAGUGAUGUUGGGAUUUGGCGUACA [Exclusion Tryptophan A Gf 16] | Satisfied |
| GAAUUAUGUAGAAGGAGCGUUAGAAGGUAUAGGUGCGAGUGAUGUUUGGAUUUGUUAAUUUGACAGGUAGGUCGCUACAGAAGGA [KL-SSArg B18 #analogue] | Satisfied |
| UGCUGGUCAUAGCGUAGUGUGAGCCGCUCACGAGGACCGGUACGGCCGCCACUCGUUACAAAGCAGUGAUGUUGCAAUAGGCUCU [theeternabot_sameState_KL_Trp_A_24] | Satisfied |
| AAAAUAAAUAGCAGUCAUGGAGUGAUGUUCCGAGGACCGGUACGGCCGCCACUCGACCAUCAUAAGAUGGAAUGGCAAGACUGCA [#SwitchBubble 23 #K4Early] | Satisfied |
| UAUAUAUGAUGUGAUACCAGUGAAAAGCCAGUGAUGUUGGUAGAACUGGUAUAUAAAUAACACCCUUGGCAGCACAAUCACGUAU [whbob_Ex_Theo_B_sa96] | Satisfied |
| GUGCGUAAGUGAUGUUUACGUCAGCUCCGCAAGGAUAUCCUGAUUAGGAGAAGGUGCGGGAACUAAAGACGCUCGUUCUAGCAGG [theeternabot_exclusion_KL_FMN_A_33] | Satisfied |
| AGGUGAGACUGAAGGAGCGAUCGCGCUAGUGAUGUUGGCGAGCAUGACAAAGUCAUGCACGAUCAGGUAGGUCGCAGUCUUACUC [Omei KL Arginine B SS B v1] | Satisfied |
| UGUAUGUGAUUUGAUACCAGACCAGCUGGUGUUAGAUGAGUGAUGUUGAUCUAGGGUUGGGUCCCUUGGCAGCAAAUCGCAUACU [KL-SSTheoB22] | Satisfied |
| CCUAUCUCAUACGAUACCAGUGAAUUUAUGUUUAUUAGCAGUGAUGUUGCGUUCCAAGUACACCCUUGGCAGCGUAUGGGAUAGG [Ex Theophylline B K4 24] | Satisfied |
| AGGAUCCACCAGUGAUGUUGGAAAUACUCCAAGGAUAUGACGAAAGUCAGAAGGUGGUAGACUGGACAAAGUCCAGUCGGAUCCA [FmnA 28 #SwitchBubble #K4Early] | Satisfied |
| AUCAUUAGUUCGGCCGCCACUCCAGUGAUGUUGGAGGGACGCAUAAUAUGCGCGCGGCUAACUAGGAGGACCGGGAACUUUAGGC [Maonce] | Satisfied |
| AUGAGGUGACUAAAUAAUAAGGGAAUUGAUACCAGACAGAAUUCUGUCCCUUGGCAGCAGUGAUGUUGUUGCAAGUCAGCUCAAA [AK1.1 Exc Theophylline A] | Satisfied |
| AGACUACCUACACUGUCAAUAGACAGUGACUAGGAUAUGCUGAUAAGCAGAAGGAGUGAUGUUCCUAAUAAAAGGUGGUAGUCAU [FmnAX 19 #SwitchBubble #StaticStem #K4Early] | Satisfied |
| AAGCGUAAAAUGGCGGACAUACUGCUCCCACGAGGACCGGUACGGCCGCCACUCGAAUGCGGCAGUGAUGUUGCCGCCUUAGCGU [KL-XTryp-A19] | Not satisfied |
